tested on: HeLa cells; test: In vitro expression of firefly luciferase (Fluc) after treatment with Fluc mRNA/amino lipidated peptoid formulations, no PEG or 2% DMG-PEG2000; type: cell-based; details: with 2% (w/w) DMG-PEG2000, peptoid:mRNA 5:1, 6 h after treatment
// NO strictly below 50 RLU in Luciferase Expression (RLU) 6 h; YES otherwise

[in] Tell me whether Luciferase Expression (RLU) 6 h is at least 50 RLU here: `CCCCCCCCCCN(CC(N)=O)C(=O)CN(CCCCCCCCCC)C(=O)CN(CCCCCCCCCC)C(=O)CN(CCCCCCCCCC)C(=O)CN(CCc1ccccc1)C(=O)CN(CCc1ccccc1)C(=O)CN(CCCN)C(=O)CN(CCc1ccccc1)C(=O)CN(CCc1ccccc1)C(=O)CN(CCCN)C(=O)CN(CCc1ccccc1)C(=O)CN(CCc1ccccc1)C(=O)CNCCCN`
[out] YES

[in] Tell me whether Luciferase Expression (RLU) 6 h is at least 50 RLU here: `CCCCCCCCCCN(CC(N)=O)C(=O)CN(CCCCCCCCCC)C(=O)CN(CCN)C(=O)CN(CCN)C(=O)CN(CCN)C(=O)CN(CCN)C(=O)CN(CCN)C(=O)CN(CCN)C(=O)CN(CCN)C(=O)CN(CCN)C(=O)CNCCN`
[out] NO

[in] Tell me whether Luciferase Expression (RLU) 6 h is at least 50 RLU here: `CCCCCCCCCCCCN(CC(N)=O)C(=O)CN(CCCCCCCCCCCC)C(=O)CN(CCc1ccc(OC)cc1)C(=O)CN(CCc1ccc(OC)cc1)C(=O)CN(CCN)C(=O)CN(CCc1ccc(OC)cc1)C(=O)CN(CCc1ccc(OC)cc1)C(=O)CN(CCN)C(=O)CN(CCc1ccc(OC)cc1)C(=O)CN(CCc1ccc(OC)cc1)C(=O)CNCCN`
[out] YES

[in] Tell me whether Luciferase Expression (RLU) 6 h is at least 50 RLU here: `CCCCCCCCCCN(CC(N)=O)C(=O)CN(CCCCCCCCCC)C(=O)CN(CCCCCCCCCC)C(=O)CN(CCCCCCCCCC)C(=O)CN(CCCCCCCCCC)C(=O)CN(CCCCCCCCCC)C(=O)CN(CCc1ccccc1)C(=O)CN(CCc1ccccc1)C(=O)CN(CCN)C(=O)CN(CCc1ccccc1)C(=O)CN(CCc1ccccc1)C(=O)CN(CCN)C(=O)CN(CCc1ccccc1)C(=O)CN(CCc1ccccc1)C(=O)CNCCN`
[out] YES

[in] Tell me whether Luciferase Expression (RLU) 6 h is at least 50 RLU here: `CCCCCCCCCCN(CC(N)=O)C(=O)CN(CCCCCCCCCC)C(=O)CN(CCc1ccccc1)C(=O)CN(CCc1ccccc1)C(=O)CN(CCN)C(=O)CN(CCc1ccccc1)C(=O)CN(CCc1ccccc1)C(=O)CN(CCN)C(=O)CN(CCc1ccccc1)C(=O)CN(CCc1ccccc1)C(=O)CNCCN`
[out] YES

[in] Tell me whether Luciferase Expression (RLU) 6 h is at least 50 RLU here: `CCCCCCCCCCN(CC(N)=O)C(=O)CN(CCCCCCCCCC)C(=O)CN(CCc1ccccc1)C(=O)CN(CCc1ccccc1)C(=O)CN(CCNC)C(=O)CN(CCc1ccccc1)C(=O)CN(CCc1ccccc1)C(=O)CN(CCNC)C(=O)CN(CCc1ccccc1)C(=O)CN(CCc1ccccc1)C(=O)CNCCNC`
[out] YES

[in] Tell me whether Luciferase Expression (RLU) 6 h is at least 50 RLU here: `CCCCCCCCCCN(CC(N)=O)C(=O)CN(CCCCCCCCCC)C(=O)CN(CCN)C(=O)CN(CCN)C(=O)CNCCN`
[out] NO

###

Task for the reader: assign each of the following compounds its reported Observed Luciferase Expression (RLU) for Given Formulation Mass Ratio 2:1.
test system: HeLa cells; experiment: In vitro Fluc expression with variable peptoid:mRNA mass ratio, 2% DMG-PEG2000; format: cell-based; conditions: 24 h, 2% (w/w) DMG-PEG2000, peptoid:mRNA 2:1
Numbers only, in RLU.

Use the examples below as a reference point.
CCCCCCCCCCN(CC(N)=O)C(=O)CN(CCCCCCCCCC)C(=O)CN(CCCCCCCCCC)C(=O)CN(CCc1ccccc1)C(=O)CN(CCc1ccccc1)C(=O)CN(CCN)C(=O)CN(CCc1ccccc1)C(=O)CN(CCc1ccccc1)C(=O)CN(CCN)C(=O)CN(CCc1ccccc1)C(=O)CN(CCc1ccccc1)C(=O)CNCCN	1.61E+04
CCCCCCCCCCN(CC(N)=O)C(=O)CN(CCCCCCCCCC)C(=O)CN(CCN)C(=O)CN(CCN)C(=O)CNCCN	8.31E+01
CCCCCCCCCCN(CC(N)=O)C(=O)CN(CCCCCCCCCC)C(=O)CN(CCc1ccccc1)C(=O)CN(CCc1ccccc1)C(=O)CN(CCN)C(=O)CN(CCc1ccccc1)C(=O)CN(CCc1ccccc1)C(=O)CN(CCN)C(=O)CN(CCc1ccccc1)C(=O)CN(CCc1ccccc1)C(=O)CN(CCN)C(=O)CN(CCc1ccccc1)C(=O)CN(CCc1ccccc1)C(=O)CNCCN	2.79E+04
CCCCCCCCCCCCN(CC(N)=O)C(=O)CN(CCCCCCCCCCCC)C(=O)CN(CCc1ccc(OC)cc1)C(=O)CN(CCc1ccc(OC)cc1)C(=O)CN(CCN)C(=O)CN(CCc1ccc(OC)cc1)C(=O)CN(CCc1ccc(OC)cc1)C(=O)CN(CCN)C(=O)CN(CCc1ccc(OC)cc1)C(=O)CN(CCc1ccc(OC)cc1)C(=O)CNCCN	3.27E+03
CCCCCCCCCCN(CC(N)=O)C(=O)CN(CCCCCCCCCC)C(=O)CN(CCc1ccccc1)C(=O)CN(CCc1ccccc1)C(=O)CN(CCN)C(=O)CN(CCc1ccccc1)C(=O)CN(CCc1ccccc1)C(=O)CN(CCN)C(=O)CN(CCc1ccccc1)C(=O)CN(CCc1ccccc1)C(=O)CNCCN	2.45E+04
CCCCCCCCCCN(CC(N)=O)C(=O)CN(CCCCCCCCCC)C(=O)CN(CCCCCCCCCC)C(=O)CN(CCCCCCCCCC)C(=O)CN(CCc1ccccc1)C(=O)CN(CCc1ccccc1)C(=O)CN(CCCN)C(=O)CN(CCc1ccccc1)C(=O)CN(CCc1ccccc1)C(=O)CN(CCCN)C(=O)CN(CCc1ccccc1)C(=O)CN(CCc1ccccc1)C(=O)CNCCCN	1.26E+02

Moving on to another compound below.
Briefly, Observed Luciferase Expression (RLU) for Given Formulation Mass Ratio 2:1 measured for `CCCCCCCCN(CC(N)=O)C(=O)CN(CCCCCCCC)C(=O)CN(CCc1ccccc1)C(=O)CN(CCc1ccccc1)C(=O)CN(CCN)C(=O)CN(CCc1ccccc1)C(=O)CN(CCc1ccccc1)C(=O)CN(CCN)C(=O)CN(CCc1ccccc1)C(=O)CN(CCc1ccccc1)C(=O)CNCCN` : 6.82E+02

###

Task for the reader: assign each of the following compounds its reported Luciferase Expression (RLU) 6 h.
system: HeLa cells; assay: In vitro expression of firefly luciferase (Fluc) after treatment with Fluc mRNA/amino lipidated peptoid formulations, no PEG or 2% DMG-PEG2000; assay type: cell-based; conditions: with 2% (w/w) DMG-PEG2000, peptoid:mRNA 5:1, 6 h after treatment
One number for each entry, in RLU.

# per-item lookup of Luciferase Expression (RLU) 6 h; items listed below
1. CCCCCCCCCCN(CC(=O)N(CCN)CC(=O)N(CCc1ccccc1)CC(=O)N(CCc1ccccc1)CC(=O)N(CCCCCCCCCC)CC(=O)N(CCN)CC(=O)N(CCc1ccccc1)CC(=O)N(CCc1ccccc1)CC(N)=O)C(=O)CN(CCc1ccccc1)C(=O)CN(CCc1ccccc1)C(=O)CNCCN
2. CCCCCCCCCCN(CC(N)=O)C(=O)CN(CCCCCCCCCC)C(=O)CN(CCc1ccccc1)C(=O)CN(CCc1ccccc1)C(=O)CNCCN
3. CCCCCCCCCCN(CC(N)=O)C(=O)CN(CCCCCCCCCC)C(=O)CN(CCc1ccccc1)C(=O)CN(CCc1ccccc1)C(=O)CN(CCN)C(=O)CN(CCc1ccccc1)C(=O)CN(CCc1ccccc1)C(=O)CNCCN
4. CCCCCCCCCCCCCCCCCCN(CC(N)=O)C(=O)CN(CCCCCCCCCCCCCCCCCC)C(=O)CN(CCc1ccccc1)C(=O)CN(CCc1ccccc1)C(=O)CN(CCN)C(=O)CN(CCc1ccccc1)C(=O)CN(CCc1ccccc1)C(=O)CN(CCN)C(=O)CN(CCc1ccccc1)C(=O)CN(CCc1ccccc1)C(=O)CNCCN

[out]
8.67E+01
1.38E+02
2.21E+02
3.46E+02

###

tested on: HeLa cells; experiment: In vitro expression of firefly luciferase (Fluc) after treatment with Fluc mRNA/amino lipidated peptoid formulations, no PEG or 2% DMG-PEG2000; assay type: cell-based; settings: no PEG, peptoid:Fluc mRNA 5:1 w/w, 100 ng/well, 6 h of treatment
# if measured Luciferase Expression (RLU) 6 h < 200 RLU: Y  # else: N

Record excerpt, results attached:
CCCCCCCCCCN(CC(N)=O)C(=O)CN(CCCCCCCCCC)C(=O)CN(CCc1ccccc1)C(=O)CN(CCc1ccccc1)C(=O)CN(CCN)C(=O)CN(CCc1ccccc1)C(=O)CN(CCc1ccccc1)C(=O)CN(CCN)C(=O)CN(CCc1ccccc1)C(=O)CN(CCc1ccccc1)C(=O)CNCCN	N
CCCCCCCCCCN(CC(N)=O)C(=O)CN(CCCCCCCCCC)C(=O)CN(CCc1ccccc1)C(=O)CN(CCc1ccccc1)C(=O)CN(CCN)C(=O)CN(CCc1ccccc1)C(=O)CN(CCc1ccccc1)C(=O)CN(CCN)C(=O)CN(CCc1ccccc1)C(=O)CN(CCc1ccccc1)C(=O)CN(CCN)C(=O)CN(CCc1ccccc1)C(=O)CN(CCc1ccccc1)C(=O)CNCCN	N
CCCCCCCCCCN(CC(N)=O)C(=O)CN(CCCCCCCCCC)C(=O)CN(CCN)C(=O)CN(CCN)C(=O)CN(CCN)C(=O)CN(CCN)C(=O)CN(CCN)C(=O)CN(CCN)C(=O)CN(CCN)C(=O)CN(CCN)C(=O)CNCCN	Y
CCCCCCCCCCCCCCCCCCN(CC(N)=O)C(=O)CN(CCCCCCCCCCCCCCCCCC)C(=O)CN(CCc1ccccc1)C(=O)CN(CCc1ccccc1)C(=O)CN(CCN)C(=O)CN(CCc1ccccc1)C(=O)CN(CCc1ccccc1)C(=O)CN(CCN)C(=O)CN(CCc1ccccc1)C(=O)CN(CCc1ccccc1)C(=O)CNCCN	Y
CCCCCCCCCCN(CC(N)=O)C(=O)CN(CCCCCCCCCC)C(=O)CN(CCc1ccccc1)C(=O)CN(CCc1ccccc1)C(=O)CN(CC1CCNCC1)C(=O)CN(CCc1ccccc1)C(=O)CN(CCc1ccccc1)C(=O)CN(CC1CCNCC1)C(=O)CN(CCc1ccccc1)C(=O)CN(CCc1ccccc1)C(=O)CNCC1CCNCC1	N

Turning now to a further record.
[in] In the record for CCCCCCCCCCN(CC(N)=O)C(=O)CN(CCCCCCCCCC)C(=O)CN(CCc1ccccc1)C(=O)CN(CCc1ccccc1)C(=O)CN(CC1CCCN1)C(=O)CN(CCc1ccccc1)C(=O)CN(CCc1ccccc1)C(=O)CN(CC1CCCN1)C(=O)CN(CCc1ccccc1)C(=O)CN(CCc1ccccc1)C(=O)CNCC1CCCN1 (stereo not shown) , is Luciferase Expression (RLU) 6 h less than 200 RLU?
[out] N
